- assayInfo: Half life in rat plasma was determined
- Format: ADME, organism-based
half-life listing for selected molecules.
The response must be a number in h with no trailing unit.

smilesRecord	unitString	half-life
C[C@@H](OC(=O)c1ccc(C(=O)O)cc1)c1ccc2c(c1)C(C)(C)CCC2(C)C	h	6

Now look at this entry.
Given the molecule CC1(C)CCC(C)(C)c2cc(COC(=O)c3ccc(C(=O)O)cc3)ccc21 , what is its reported half-life?
2.3
